TARGET SYSTEM: S1P3 (Homo sapiens)
Construct: host or cells: HEK293 (transient transfection)
Sequence (P32121 whole entry): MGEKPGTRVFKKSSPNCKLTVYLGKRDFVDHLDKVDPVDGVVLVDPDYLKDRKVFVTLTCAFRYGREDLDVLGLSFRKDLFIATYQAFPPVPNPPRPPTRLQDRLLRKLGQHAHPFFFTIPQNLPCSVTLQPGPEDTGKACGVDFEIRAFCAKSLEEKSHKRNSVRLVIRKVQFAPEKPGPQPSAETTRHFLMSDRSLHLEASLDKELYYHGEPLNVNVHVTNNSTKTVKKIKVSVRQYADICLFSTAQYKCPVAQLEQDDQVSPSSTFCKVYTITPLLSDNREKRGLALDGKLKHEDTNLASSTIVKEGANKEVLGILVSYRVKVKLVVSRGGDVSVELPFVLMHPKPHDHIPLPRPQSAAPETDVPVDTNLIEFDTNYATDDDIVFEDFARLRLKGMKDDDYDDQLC
Sequence (Q99500 whole entry): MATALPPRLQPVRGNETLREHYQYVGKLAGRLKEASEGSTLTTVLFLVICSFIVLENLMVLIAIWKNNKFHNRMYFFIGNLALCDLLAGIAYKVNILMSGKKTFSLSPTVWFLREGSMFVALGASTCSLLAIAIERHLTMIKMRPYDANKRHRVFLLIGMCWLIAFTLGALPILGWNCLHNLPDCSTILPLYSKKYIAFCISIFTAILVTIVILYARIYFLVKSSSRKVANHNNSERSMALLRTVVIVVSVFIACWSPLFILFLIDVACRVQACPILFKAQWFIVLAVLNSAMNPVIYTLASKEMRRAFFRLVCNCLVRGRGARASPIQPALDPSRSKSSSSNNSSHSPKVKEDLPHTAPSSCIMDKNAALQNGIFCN
MEASUREMENT DESCRIPTION: S1P3 Tango β-arrestin recruitment assay in HEK293 cells (Assay 5)
Type: cell-based
STATED CONDITIONS: read-out: Assay 5 EC50
MEASURED QUANTITY: EC50

Consider the reported EC50 for these molecules:
CC(C)Nc1ccc(-c2nnc(-c3cc(F)c(OC[C@H](N)[C@H](C)O)cc3Cl)s2)cn1 :: > 10 µM
CC(C)Oc1ncc(-c2nnc(-c3cc(F)c(OC[C@@H](N)CO)cc3Cl)s2)cc1Cl :: ≤ 0.25 µM
CC(C)Oc1ncc(-c2nnc(-c3cc(F)c(OCC(N)CO)cc3Cl)s2)cc1Cl (centres unmarked) :: ≤ 0.25 µM
CC(C)Nc1ncc(-c2nnc(-c3cc(F)c(OC[C@H](N)CO)cc3Cl)s2)cn1 :: > 10 µM
Cc1cc(-c2nnc(-c3cc(F)c(OC[C@H](N)[C@H](C)O)cc3Cl)s2)ccc1OC(C)C :: > 10 µM

Ask: Recorded EC50 for CC(C)Oc1ncc(-c2nnc(-c3cc(F)c(OC[C@H](N)CO)cc3Cl)s2)cc1Cl , please?
Result: > 10 µM

----------
Below is a list of entries, each paired with its recorded pEC50 value.
TARGET SYSTEM: hS1P1R (hEdg1) membrane protein (Homo sapiens, UniProt P21453)
Sequence (P21453 whole entry): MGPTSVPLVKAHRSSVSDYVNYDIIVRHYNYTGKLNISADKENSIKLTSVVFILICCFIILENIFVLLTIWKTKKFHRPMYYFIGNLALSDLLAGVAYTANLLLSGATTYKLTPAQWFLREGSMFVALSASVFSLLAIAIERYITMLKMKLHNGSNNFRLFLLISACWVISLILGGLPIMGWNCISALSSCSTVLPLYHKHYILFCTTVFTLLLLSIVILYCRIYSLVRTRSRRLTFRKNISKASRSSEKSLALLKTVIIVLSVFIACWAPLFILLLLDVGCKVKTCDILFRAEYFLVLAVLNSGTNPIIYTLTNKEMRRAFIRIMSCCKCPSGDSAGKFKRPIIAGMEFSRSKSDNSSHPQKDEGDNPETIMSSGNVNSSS
MEASUREMENT DESCRIPTION: hS1P1R GTPγS binding assay (Assay 3a)
pEC50: −log10 of the molar value.

Consider the reported pEC50 for these compounds:
N[C@H](CO)COc1cc(Cl)c(-c2nnc(-c3cc(Br)cc(Br)c3)s2)cc1F :: 5.55 to 6.60
N[C@H](CO)COc1cc(Cl)c(-c2nnc(-c3cc(Cl)cc(Cl)c3)s2)cc1F :: 5.55 to 6.60

Ask: Recorded pEC50 for CC(C)Oc1ccc(-c2nnc(-c3cc(F)c(OC[C@@H](N)CO)cc3Cl)s2)cn1 , please?
Result: 7.30 to 8.00

Ask: Recorded pEC50 for COCCOc1ccc(-c2nnc(-c3cc(F)c(OC[C@H](N)CO)cc3Cl)s2)cc1C#N , please?
Result: 6.60 to 7.30

----------
Below is a list of entries, each paired with its recorded pEC50 value.
TARGET SYSTEM: hS1P1R (hEdg1) membrane protein (Homo sapiens)
MEASUREMENT DESCRIPTION: hS1P1R GTPγS binding assay (Assay 3a)
pEC50: −log10 of the molar value.

Consider the reported pEC50 for these molecules:
CC(C)Nc1cc(-c2nnc(-c3cc(F)c(OC[C@H](N)[C@H](C)O)cc3Cl)s2)ccn1 :: 6.60 to 7.30
CC(C)Oc1ccc(-c2nnc(-c3cc(F)c(OC[C@H](N)CO)cc3Cl)s2)cc1Br :: ≥ 8.00
CC(C)Oc1ccc(-c2nnc(-c3cc(F)c(OC[C@@H](N)CO)cc3Cl)s2)cc1Cl :: ≥ 8.00

Now turn to the next molecule.
Ask: Recorded pEC50 for CC(C)Nc1ccc(-c2nnc(-c3cc(F)c(OC[C@H](N)[C@H](C)O)cc3Cl)s2)cn1 , please?
Result: 5.55 to 6.60

----------
Below is a list of entries, each paired with its recorded pEC50 value.
TARGET SYSTEM: hS1PR5 (hEdg8) membrane protein (Homo sapiens, UniProt Q9H228)
Sequence (Q9H228 whole entry): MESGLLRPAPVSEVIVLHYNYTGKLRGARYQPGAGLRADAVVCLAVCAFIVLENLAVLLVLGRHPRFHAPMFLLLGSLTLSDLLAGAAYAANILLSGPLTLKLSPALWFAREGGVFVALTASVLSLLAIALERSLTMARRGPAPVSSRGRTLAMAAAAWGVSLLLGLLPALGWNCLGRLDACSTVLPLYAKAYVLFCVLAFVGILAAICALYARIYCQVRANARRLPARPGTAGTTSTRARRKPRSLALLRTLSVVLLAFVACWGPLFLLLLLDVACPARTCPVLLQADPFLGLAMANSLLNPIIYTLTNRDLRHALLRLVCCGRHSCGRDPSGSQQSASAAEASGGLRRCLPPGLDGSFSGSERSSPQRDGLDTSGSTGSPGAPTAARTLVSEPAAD
MEASUREMENT DESCRIPTION: hS1P5R GTPγS binding assay (Assay 4)
pEC50: −log10 of the molar value.

Consider the reported pEC50 for these compounds:
CC(C)Nc1ccc(-c2nnc(-c3cc(F)c(OC[C@@H](N)[C@@H](C)O)cc3Cl)s2)cn1 :: 5.55 to 6.60
CC(C)Oc1ccc(-c2nnc(-c3cc(F)c(OC[C@@H](N)[C@@H](C)O)cc3Cl)s2)cc1C#N :: 7.30 to 8.00
CC(C)Oc1ccc(-c2nnc(-c3cc(F)c(OC[C@H](N)[C@@H](C)OP(=O)(O)O)cc3Cl)s2)cc1Cl :: ≥ 8.00

Ask: Recorded pEC50 for Cc1cc(-c2nnc(-c3cc(F)c(OC[C@H](N)[C@@H](C)O)cc3Cl)s2)cc(NC(C)C)n1 , please?
Result: 7.30 to 8.00
